# system_under_test: GST-tagged Tankyrase-1 (1023-1327 aa) (Homo sapiens)
# Construct: GST-tagged Tankyrase-1 (1023-1327 aa)
# experiment_summary: biochemical
# condition_set: read-out: IC50 tankyrase 1 (enzyme assay)
# Experimental: aq (aqueous), h (hour), g (gram), L (liter), mg (milligram), MHz (Megahertz), min. (minute), mm (millimeter), mmol (millimole), mM (millimolar), m.p. […] The autoparsylation assay is performed as 384-well HTRF® (Cisbio, Codolet, France) assay format in Greiner low volume nb 384-well microtiter plates and is used for high throughput screen. […] The ratio of the emission signals is determined. […]
attribute_measured: IC50

Some solved cases for reference:
COCCOC(C)(C)c1ccc(-c2nc3ccc(F)cc3c(=O)[nH]2)cc1
300 to 3000 nM
O=c1[nH]c(-c2ccc(C3(O)CCCC3)cc2)nc2ccc(F)cc12
< 300 nM
Cc1cc(F)cc2c(=O)[nH]c(-c3ccc(N4CCN(C)CC4)cc3)nc12
300 to 3000 nM

Next item in the queue.
Could you please provide reported IC50 for Cc1cc(F)cc2c(=O)[nH]c(-c3ccc(N4CCS(=O)(=O)CC4)cc3)nc12 ? Thanks!
300 to 3000 nM

---

# system_under_test: His-tagged Parp-1 (Homo sapiens, UniProt P09874)
# Sequence (P09874 whole entry): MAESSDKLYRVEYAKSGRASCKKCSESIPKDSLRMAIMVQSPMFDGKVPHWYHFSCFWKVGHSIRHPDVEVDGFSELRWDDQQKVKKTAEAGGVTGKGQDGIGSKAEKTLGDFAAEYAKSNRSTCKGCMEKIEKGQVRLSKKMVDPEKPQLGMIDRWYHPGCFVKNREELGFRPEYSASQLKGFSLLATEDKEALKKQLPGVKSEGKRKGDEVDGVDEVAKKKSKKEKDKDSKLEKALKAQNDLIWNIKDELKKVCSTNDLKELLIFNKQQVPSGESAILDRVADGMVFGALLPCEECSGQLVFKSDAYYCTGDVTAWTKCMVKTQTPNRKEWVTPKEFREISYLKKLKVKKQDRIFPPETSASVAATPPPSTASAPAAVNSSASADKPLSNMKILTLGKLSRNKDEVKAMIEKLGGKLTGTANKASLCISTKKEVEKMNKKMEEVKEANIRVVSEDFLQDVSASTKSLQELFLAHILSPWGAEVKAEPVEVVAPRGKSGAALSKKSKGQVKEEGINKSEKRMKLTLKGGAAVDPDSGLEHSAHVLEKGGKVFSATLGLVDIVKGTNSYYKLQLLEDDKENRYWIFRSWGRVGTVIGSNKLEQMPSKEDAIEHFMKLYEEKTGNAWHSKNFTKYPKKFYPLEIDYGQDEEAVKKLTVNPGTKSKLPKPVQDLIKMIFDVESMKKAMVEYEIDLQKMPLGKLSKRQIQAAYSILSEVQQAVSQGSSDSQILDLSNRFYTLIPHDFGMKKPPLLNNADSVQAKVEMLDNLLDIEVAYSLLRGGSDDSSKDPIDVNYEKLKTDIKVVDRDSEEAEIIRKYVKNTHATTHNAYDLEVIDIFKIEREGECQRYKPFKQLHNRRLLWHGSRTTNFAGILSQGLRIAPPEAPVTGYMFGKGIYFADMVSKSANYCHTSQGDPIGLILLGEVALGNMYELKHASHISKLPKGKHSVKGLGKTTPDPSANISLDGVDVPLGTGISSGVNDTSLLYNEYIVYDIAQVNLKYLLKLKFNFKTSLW
attribute_measured: IC50

Some solved cases for reference:
CN1CCN(c2ccc(-c3nc4ccc(F)cc4c(=O)[nH]3)cc2)CC1
0.3 to 3 µM
Cc1cc(F)cc2c(=O)[nH]c(-c3ccc(C(C)(C)OCCO)cc3)nc12
0.3 to 3 µM
CC(C)(O)c1ccc(-c2nc3ccc(F)cc3c(=O)[nH]2)cc1
0.3 to 3 µM

Would you please give the reported IC50 of CC(C)(O)c1ccc(-c2nc3c(F)cc(F)c(F)c3c(=O)[nH]2)cc1 with His-tagged Parp-1 (Homo sapiens, UniProt P09874)?
0.3 to 3 µM

Would you please give the reported IC50 of COc1cccc2c(=O)[nH]c(-c3ccc(C(C)(C)O)cc3)nc12 with His-tagged Parp-1 (Homo sapiens, UniProt P09874)?
0.3 to 3 µM

Would you please give the reported IC50 of CC(C)(O)c1ccc(-c2nc3cccc(F)c3c(=O)[nH]2)cc1 with His-tagged Parp-1 (Homo sapiens, UniProt P09874)?
0.3 to 3 µM

---

# system_under_test: GST-tagged Tankyrase-1 (1023-1327 aa) (Homo sapiens, UniProt O95271)
# Construct: GST-tagged Tankyrase-1 (1023-1327 aa)
# Sequence (O95271 1023-1327): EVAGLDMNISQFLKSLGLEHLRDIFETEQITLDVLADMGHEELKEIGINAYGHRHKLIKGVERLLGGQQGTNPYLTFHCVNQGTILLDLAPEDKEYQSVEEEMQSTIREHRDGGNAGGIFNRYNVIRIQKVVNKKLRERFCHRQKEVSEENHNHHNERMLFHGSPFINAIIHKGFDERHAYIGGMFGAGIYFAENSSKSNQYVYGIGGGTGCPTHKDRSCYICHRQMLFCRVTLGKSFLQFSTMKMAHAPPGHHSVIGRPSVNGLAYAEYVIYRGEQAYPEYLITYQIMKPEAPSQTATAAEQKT
# experiment_summary: biochemical
# condition_set: read-out: IC50 tankyrase 1 (enzyme assay)
Catalogue of IC50 readings, one per entry.

Some solved cases for reference:
CC(C)(O)c1ccc(-c2nc3ccc(F)cc3c(=O)[nH]2)nc1 [Compound A13]
300 to 3000 nM
Cc1cc(F)cc2c(=O)[nH]c(-c3ccc(C(C)(C)OCCO)cc3)nc12 [Compound A21]
300 to 3000 nM
Cc1cc(F)cc2c(=O)[nH]c(-c3ccc(C(C)(C)O)cc3)nc12 [Compound A25]
< 300 nM

Would you please give the reported IC50 of CC(C)(O)c1ccc(-c2nc3c(Cl)cccc3c(=O)[nH]2)cc1 [Compound A6] with GST-tagged Tankyrase-1 (1023-1327 aa) (Homo sapiens, UniProt O95271)?
< 300 nM

Would you please give the reported IC50 of CC(C)(O)c1ccc(-c2nc3c(F)cccc3c(=O)[nH]2)cc1 [Compound A3] with GST-tagged Tankyrase-1 (1023-1327 aa) (Homo sapiens, UniProt O95271)?
< 300 nM

---

# system_under_test: GST-tagged Tankyrase-1 (1023-1327 aa) (Homo sapiens)
# Construct: GST-tagged Tankyrase-1 (1023-1327 aa)
# experiment_summary: biochemical
Structures can show the parent of a compound that is named as a salt.
attribute_measured: IC50

Could you please provide reported IC50 for O=c1[nH]c(-c2ccc(C3CCNCC3)cc2)nc2c(F)cc(F)cc12 [Compound A34, hydrochloride] ? Thanks!
< 300 nM

---

Catalogue of pIC50 readings, one per entry.
# system_under_test: GST-tagged Tnks-1 (1023-1327 aa) (Homo sapiens, UniProt O95271)
# Construct: GST-tagged Tnks-1 (1023-1327 aa, prepared in-house); made in house
# Sequence (O95271 1023-1327): as above
# experiment_summary: TNKS1 activity ELISA (autoparsylation assay)
# Assay type: biochemical
pIC50: −log10 of the molar value. Structures can show the parent of a compound that is named as a salt.

Cc1cc(F)cc2c(=O)[nH]c(-c3ccc(N4CCS(=O)(=O)CC4)cc3)nc12
> 6.52

Next item in the queue.
Could you please provide reported pIC50 for Cc1cc(F)cc2c(=O)[nH]c(-c3ccc(C4CCNCC4)cc3)nc12 [Compound A33, hydrochloride] ? Thanks!
> 6.52

---

# system_under_test: His-tagged Parp-1 (Homo sapiens)
# Construct: purchased Enzo Life Sciences GmbH, Lörrach, Germany
# experiment_summary: PARP-1 autoparsylation assay (HTRF)
# Format: biochemical
pIC50: −log10 of the molar value.
attribute_measured: pIC50

CC(C)(O)c1ccc(-c2nc3c(F)cccc3c(=O)[nH]2)cc1
5.52 to 6.52
Cc1cc(F)cc2c(=O)[nH]c(-c3ccc(N4CCN(C)CC4)cc3)nc12
> 6.52

Could you please provide reported pIC50 for Cc1cccc2c(=O)[nH]c(-c3ccc(C(C)(C)O)cc3)nc12 ? Thanks!
> 6.52

---

# system_under_test: GST-tagged Tnks-1 (1023-1327 aa) (Homo sapiens)
# Construct: GST-tagged Tnks-1 (1023-1327 aa, prepared in-house); made in house
# experiment_summary: TNKS1 activity ELISA (autoparsylation assay)
# Assay type: biochemical
# condition_set: read-out: IC50 TNKS1 ELISA
attribute_measured: IC50

Cc1cc(F)cc2c(=O)[nH]c(-c3ccc(C(C)(C)O)cc3)nc12
< 300 nM
Cc1cc(F)cc2c(=O)[nH]c(-c3ccc(C(C)(C)OCCO)cc3)nc12
< 300 nM

Next item in the queue.
Could you please provide reported IC50 for Cc1cc(F)cc2c(=O)[nH]c(-c3ccc(N4CCN(C)CC4)cc3)nc12 ? Thanks!
< 300 nM

---

# system_under_test: GST-tagged Tankyrase-1 (1023-1327 aa) (Homo sapiens, UniProt O95271)
# Construct: GST-tagged Tankyrase-1 (1023-1327 aa)
# experiment_summary: biochemical
# condition_set: read-out: IC50 tankyrase 1 (enzyme assay)
Where a name gives a salt, the structure may show the parent alone.
Catalogue of IC50 readings, one per entry.

Cc1cc(F)cc2c(=O)[nH]c(-c3ccc(N4CCCN(C)CC4)cc3)nc12
300 to 3000 nM
CC(C)c1ccc(-c2nc3ccc(F)cc3c(=O)[nH]2)cc1
300 to 3000 nM
CC(C)(O)c1ccc(-c2nc3c(F)ccc(F)c3c(=O)[nH]2)cc1
< 300 nM
CC(C)(C)c1ccc(-c2nc3ccc(F)cc3c(=O)[nH]2)cc1
< 300 nM
CC(C)(O)c1ccc(-c2nc3ccc(F)c(F)c3c(=O)[nH]2)cc1
< 300 nM
Cc1cccc2c(=O)[nH]c(-c3ccc(C(C)(C)O)cc3)nc12
< 300 nM
CC(C)(O)c1ccc(-c2nc3ccc(Cl)cc3c(=O)[nH]2)cc1
< 300 nM
Cc1cc(F)cc2c(=O)[nH]c(-c3ccc(C4CCNCC4)cc3)nc12 [Compound A33, hydrochloride]
< 300 nM
Cc1cc(F)cc2c(=O)[nH]c(-c3ccc(N4CCC(CO)CC4)cc3)nc12
300 to 3000 nM
CC(C)(O)c1ccc(-c2nc3ccc(F)cc3c(=O)[nH]2)cc1
< 300 nM

Could you please provide reported IC50 for CC(C)(O)c1ccc(-c2nc3cccc(F)c3c(=O)[nH]2)cc1 ? Thanks!
< 300 nM

Could you please provide reported IC50 for COc1cccc2c(=O)[nH]c(-c3ccc(C(C)(C)O)cc3)nc12 ? Thanks!
< 300 nM

Could you please provide reported IC50 for CC(C)(O)c1ccc(-c2nc3cccc(Cl)c3c(=O)[nH]2)cc1 ? Thanks!
300 to 3000 nM

Could you please provide reported IC50 for CCC(O)(CC)c1ccc(-c2nc3ccc(F)cc3c(=O)[nH]2)cc1 ? Thanks!
< 300 nM

Could you please provide reported IC50 for CN1CCN(c2ccc(-c3nc4ccc(F)cc4c(=O)[nH]3)cc2)CC1 ? Thanks!
< 300 nM

Could you please provide reported IC50 for Cc1cc(F)cc2c(=O)[nH]c(-c3ccc(N4CCC(O)CC4)cc3)nc12 ? Thanks!
300 to 3000 nM

Could you please provide reported IC50 for CC(C)(OCCO)c1ccc(-c2nc3ccc(F)cc3c(=O)[nH]2)cc1 ? Thanks!
< 300 nM

Could you please provide reported IC50 for CC(C)(O)c1ccc(-c2nc3c(F)cc(F)c(F)c3c(=O)[nH]2)cc1 ? Thanks!
< 300 nM

The measurements presented in this section are drawn from patent US9388142B2.
